// provenance: paper PMC9959676

# Tested on: Pseudomonas aeruginosa
# measurement.protocol: Antibacterial agar-well diffusion
# Assay type: cell-based
# test.parameters: sample 100 mg/5 mL in DMSO; ceftriaxone sodium 20 mg/10 mL; 37 °C, 24 h; 6 mm wells
property: Zone of Inhibition Gram -Ve Bacteria P. aeruginosa Mean ± SEM (millimeters)

| compound | unit | quantitative.readout |
| --- | --- | --- |
| CCCCC(=O)N(Cc1ccc(-c2ccccc2-c2nnn[nH]2)cc1)C(C(=O)Oc1ccc(N)cc1)C(C)C (stereo not drawn) | millimeters | 10.31 |
| CO/N=C(\C(=O)N[C@@H]1C(=O)N2C(C(=O)O)=C(CSc3nc(=O)c(=O)[nH]n3C)CS[C@H]12)c1csc(N)n1 [Ceftriaxone, ceftriaxone sodium, reference compound] | millimeters | 23.33 |
| CCCCC(=O)N(Cc1ccc(-c2ccccc2-c2nn[nH]n2)cc1)C(C(=O)Oc1cc(C)ccc1C(C)C)C(C)C (stereo not drawn) | millimeters | 12.23 |
